Give EC50 (FLIPR) for every item shown.
- targetEntity: mouse NMUR2 (mouse, UniProt Q8BZ39 1-395)
- Sequence (Q8BZ39 whole entry): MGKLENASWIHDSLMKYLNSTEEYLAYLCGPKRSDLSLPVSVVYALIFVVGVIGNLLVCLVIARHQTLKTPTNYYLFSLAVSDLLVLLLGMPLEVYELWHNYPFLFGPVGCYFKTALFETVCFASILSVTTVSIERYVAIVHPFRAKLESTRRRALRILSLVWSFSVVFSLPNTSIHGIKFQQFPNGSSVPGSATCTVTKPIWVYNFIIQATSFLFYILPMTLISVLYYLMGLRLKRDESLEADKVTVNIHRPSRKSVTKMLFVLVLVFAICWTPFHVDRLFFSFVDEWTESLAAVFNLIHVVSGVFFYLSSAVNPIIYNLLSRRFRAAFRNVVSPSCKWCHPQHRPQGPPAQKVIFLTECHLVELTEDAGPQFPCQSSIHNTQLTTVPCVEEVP
- experimentSummary: cell-based or functional assay
Starred links: 1 amine or outer side, 2 acyl side, 3 side chain; linkers in the order of their positions; H or OH if unused. Non-standard residues stand in square brackets, D forms with d. *: point of attachment. Ttds = 1-amino-4,7,10-trioxa-13-tridecanamine succinimic acid spacer, O=C(CCC(=O)[*:2])NCCCOCCOCCOCCCN[*:1]; (PEG)2 40 kDa = branched PEG of 40 kDa linked via the Cys side-chain thiol (code C2 = Cys(PEG)2 40 kDa); Succinimide(1-Et,3-yl) = CCN1C(=O)CC(*)C1=O; Palmitoyl = CCCCCCCCCCCCCCCC(=O)*

So for Ac-C(PEG 20 kDa)C(PEG 20 kDa)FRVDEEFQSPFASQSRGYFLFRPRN-NH2 [NMU23] , the logged EC50 (FLIPR) turned out to be 21.3 nM

The reported EC50 (FLIPR) of the binder Ac-C(Succinimide(1-Et,3-yl))GYFLFRPRN-NH2 (SMILES CCN1C(=O)CC(SC[C@H](NC(C)=O)C(=O)NCC(=O)N[C@@H](Cc2ccc(O)cc2)C(=O)N[C@@H](Cc2ccccc2)C(=O)N[C@@H](CC(C)C)C(=O)N[C@@H](Cc2ccccc2)C(=O)N[C@@H](CCCNC(=N)N)C(=O)N2CCC[C@H]2C(=O)N[C@@H](CCCNC(=N)N)C(=O)N[C@@H](CC(N)=O)C(N)=O)C1=O) [NMU6] was 0.7 nM

So, Palmitoyl-C(Succinimide(1-Et,3-yl))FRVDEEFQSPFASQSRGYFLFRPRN-NH2 [NMU24] ? Its EC50 (FLIPR) was 1000 nM

// Ac-C((PEG)2 40 kDa)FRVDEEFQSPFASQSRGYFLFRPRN-NH2 [NMU12] : EC50 (FLIPR) value = 19.1 nM

EC50 (FLIPR) reported for this binder Palmitoyl-C((PEG)2 40 kDa)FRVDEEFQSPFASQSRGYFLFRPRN-NH2 [NMU25] : 18.8 nM

Sure, the documented EC50 (FLIPR) for Ac-C((PEG)2 40 kDa)FRVDEEFQSPFASQSRGYF[dA]WRPRN-NH2 [NMU14] is > 1000 nM

EC50 (FLIPR) for Ac-C(Succinimide(1-Et,3-yl))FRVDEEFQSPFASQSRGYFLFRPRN-NH2 [NMU8] is 1.8 nM

So for Ac-C(Succinimide(1-Et,3-yl))[Ttds]FLFRPRN-NH2 (SMILES CCN1C(=O)CC(SC[C@H](NC(C)=O)C(=O)NCCCOCCOCCOCCCNC(=O)CCC(=O)N[C@@H](Cc2ccccc2)C(=O)N[C@@H](CC(C)C)C(=O)N[C@@H](Cc2ccccc2)C(=O)N[C@@H](CCCNC(=N)N)C(=O)N2CCC[C@H]2C(=O)N[C@@H](CCCNC(=N)N)C(=O)N[C@@H](CC(N)=O)C(N)=O)C1=O) [NMU15] , the logged EC50 (FLIPR) turned out to be 0.6 nM

Lab note: Ac-C((PEG)2 40 kDa)ASQSRGYFLFRPRN-NH2 [NMU18] gave EC50 (FLIPR) of 50.2 nM

Quick note, EC50 (FLIPR) for Ac-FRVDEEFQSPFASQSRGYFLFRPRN-NH2 [NMU2] landed at 1.2 nM

Reported EC50 (FLIPR) ( Ac-C((PEG)2 40 kDa)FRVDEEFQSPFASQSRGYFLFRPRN-NH2 [NMU9] ) = 19 nM

For this binder ( Ac-C(PEG 20 kDa)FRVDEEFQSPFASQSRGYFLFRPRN-NH2 [NMU21] ), measured EC50 (FLIPR) is 1.6 nM

// data source = patent US20070244048A1
